# System: B16F10.9 cells (MSR1 negative)
# assay.comment: Flow cytometry binding, MSR1 negative cells
# Format: cell-based, mouse
# reported.conditions: 10 μg/mL antibody
quantity.measured: B16F10.9 MFI
Lab note: write the figure by itself, no unit.

Identify measured B16F10.9 MFI associated with H1H27734P-N297Q: one of "Twelve anti-MSR1 antibodies"; "made with an N297Q single point mutation in human Fcγ portion" (antibody, V domains shown) VH: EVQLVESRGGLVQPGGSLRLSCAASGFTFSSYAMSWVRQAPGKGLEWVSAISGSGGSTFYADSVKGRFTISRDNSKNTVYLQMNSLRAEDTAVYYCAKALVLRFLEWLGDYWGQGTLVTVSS VL: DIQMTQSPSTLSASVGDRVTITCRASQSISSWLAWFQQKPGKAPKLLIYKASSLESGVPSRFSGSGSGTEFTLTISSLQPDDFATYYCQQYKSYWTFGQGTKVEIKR 4505
